B1: HDV Ribozyme (parent)
chain: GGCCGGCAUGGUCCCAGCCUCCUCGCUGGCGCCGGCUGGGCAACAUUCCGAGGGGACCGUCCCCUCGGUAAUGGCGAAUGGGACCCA

variants of: B1; experiment: self-cleavage, relative activity (ratio to wild type); higher = more cleavage; co-transcriptional
measured.property: self-cleavage

query: Determine its reported self-cleavage: U9A A83C
result: 0.731

query: Determine its reported self-cleavage: G74C G82A
result: 0.166

query: Determine its reported self-cleavage: C36G G54A
result: 0.0831

query: Determine its reported self-cleavage: U9G C26A
result: 1.23

query: Determine its reported self-cleavage: U23A C30G
result: 0

query: Determine its reported self-cleavage: C15U G39C
result: 0.0639

query: Determine its reported self-cleavage: G55C C57G
result: 1.14

query: Determine its reported self-cleavage: C21U U37A
result: 0.157

query: Determine its reported self-cleavage: G11A G53C
result: 0.372

query: Determine its reported self-cleavage: G1A C44A
result: 0.0426

query: Determine its reported self-cleavage: C24U C49U
result: 0.758

query: Determine its reported self-cleavage: U9A A77G
result: 0.751

query: Determine its reported self-cleavage: A43C A70U
result: 0.322

query: Determine its reported self-cleavage: G29U U79A
result: 0.0386

query: Determine its reported self-cleavage: G53U U60G
result: 0.972

query: Determine its reported self-cleavage: G39A G74U
result: 0.176

query: Determine its reported self-cleavage: G29U A56U
result: 0.109

query: Determine its reported self-cleavage: A45U G76C
result: 0.689

query: Determine its reported self-cleavage: C30A G55A
result: 0.472

query: Determine its reported self-cleavage: G1A G39U
result: 0.135

query: Determine its reported self-cleavage: U20C G34C
result: 0

query: Determine its reported self-cleavage: A8C G39C
result: 0.0615

query: Determine its reported self-cleavage: G2C C13U
result: 0.153

query: Determine its reported self-cleavage: C33A C61A
result: 0.281

query: Determine its reported self-cleavage: C33U U46C
result: 0.68

query: Determine its reported self-cleavage: C7G C19G
result: 0.0791

query: Determine its reported self-cleavage: U9C G54C
result: 1.11

query: Determine its reported self-cleavage: A51C C86A
result: 0.872

query: Determine its reported self-cleavage: U27C C63U
result: 0.73

query: Determine its reported self-cleavage: C21U C85G
result: 0.358

query: Determine its reported self-cleavage: A8C C13G
result: 0.0692

query: Determine its reported self-cleavage: G31U A78C
result: 0.0297

query: Determine its reported self-cleavage: U47A G81C
result: 0.161

query: Determine its reported self-cleavage: G50A G67C
result: 0.869

query: Determine its reported self-cleavage: A71U U79G
result: 0.831

query: Determine its reported self-cleavage: C13G C21G
result: 0.0723

query: Determine its reported self-cleavage: A16U C32U
result: 0.727

query: Determine its reported self-cleavage: G6A A16C
result: 0.111

query: Determine its reported self-cleavage: G31C C49U
result: 0.339

query: Determine its reported self-cleavage: G52C G53U
result: 0.782

query: Determine its reported self-cleavage: G40A G76C
result: 0.947

query: Determine its reported self-cleavage: U9A C66U
result: 1.01

query: Determine its reported self-cleavage: C30G C66U
result: 0.185

query: Determine its reported self-cleavage: C3U G28U
result: 0.0707

query: Determine its reported self-cleavage: C44U G52U
result: 0.82

query: Determine its reported self-cleavage: A16G G81U
result: 0.489

query: Determine its reported self-cleavage: C57A G68C
result: 1.06

query: Determine its reported self-cleavage: A43C U65A
result: 0.623

query: Determine its reported self-cleavage: C3A G68A
result: 0.408

query: Determine its reported self-cleavage: C14A G34C
result: 0.151

query: Determine its reported self-cleavage: C36U C48A
result: 0.623

query: Determine its reported self-cleavage: U20A C57A
result: 0.0978

query: Determine its reported self-cleavage: C30U C63A
result: 0.466

query: Determine its reported self-cleavage: G5C U9C
result: 0.312

query: Determine its reported self-cleavage: C26G G81U
result: 0.567

query: Determine its reported self-cleavage: C3U C86A
result: 0.923

query: Determine its reported self-cleavage: G11A C15A
result: 0.108

query: Determine its reported self-cleavage: C41U G74C
result: 0.174

query: Determine its reported self-cleavage: G29C G74A
result: 0.0733

query: Determine its reported self-cleavage: G6U C13U
result: 0.249

query: Determine its reported self-cleavage: C3A G25A
result: 0.0658

query: Determine its reported self-cleavage: C3A U37A
result: 0.122

query: Determine its reported self-cleavage: U9C C22A
result: 0.192

query: Determine its reported self-cleavage: U46C G68U
result: 0.719

query: Determine its reported self-cleavage: A8C A16C
result: 1.07

query: Determine its reported self-cleavage: G29A G82C
result: 0.0627

query: Determine its reported self-cleavage: G53A A87U
result: 0.992

query: Determine its reported self-cleavage: U20C C61U
result: 0.0723

query: Determine its reported self-cleavage: C14U C24G
result: 0.121

query: Determine its reported self-cleavage: A43C U46A
result: 0.877

query: Determine its reported self-cleavage: C4A A43G
result: 0.158

query: Determine its reported self-cleavage: C61A U65C
result: 0.909

query: Determine its reported self-cleavage: U47A A77U
result: 0.516

query: Determine its reported self-cleavage: C44U A83C
result: 0.314

query: Determine its reported self-cleavage: A16U G80C
result: 0.145

query: Determine its reported self-cleavage: G68U G80U
result: 0.257

query: Determine its reported self-cleavage: U12A C64A
result: 0.26

query: Determine its reported self-cleavage: G6U C84A
result: 0.375

query: Determine its reported self-cleavage: C32A A42G
result: 0.0519

query: Determine its reported self-cleavage: U46G U47G
result: 0.262

query: Determine its reported self-cleavage: G31A C61A
result: 0.554

query: Determine its reported self-cleavage: G17C G80U
result: 0.0588

query: Determine its reported self-cleavage: A16U C86G
result: 0.853

query: Determine its reported self-cleavage: G31U C86U
result: 0.453

query: Determine its reported self-cleavage: A16C C26U
result: 0.886

query: Determine its reported self-cleavage: G6A C64A
result: 0.869

query: Determine its reported self-cleavage: G28U C64G
result: 0.102

query: Determine its reported self-cleavage: G5U A42C
result: 0.178

query: Determine its reported self-cleavage: G50A G67A
result: 1.17

query: Determine its reported self-cleavage: C3U A42G
result: 0.483

query: Determine its reported self-cleavage: A71U G82A
result: 0.365

Source listed as the RNAGym collection of RNA variant scans (doi:10.7554/elife.80360).
